Source: patent US20260207637A1

experimental-details: Pharmacokinetic test in cynomolgus monkeys
Assay type: in vivo
measurement-parameters: male, cynomolgus monkey, plasma, IV 2 mg/kg, 5 min, read-out: Plasma concentration of the unchanged drug
result-type: concentration at 5 min

| compound | result-type | value-reported |
| --- | --- | --- |
| C/C(=C\CCP(=O)(N[C@@H](C)C(=O)OCc1ccccc1)Oc1ccccc1)CO (stereo partly shown) [Control compound 2, reference compound] | concentration at 5 min | 299 ng/mL |

###

experimental-details: Pharmacokinetic test in cynomolgus monkeys
Assay type: in vivo
measurement-parameters: male, cynomolgus monkey, plasma, IV 2 mg/kg, average, read-out: Cl (Cl_obs)
Protocol: The control compound 2 and compound 19 were formulated into 1 mg/mL solution in 10% DMSO/90% PBS. […] The blood collected before administration was recorded as zero point. […] The plasma separated after centrifugation was placed in a labeled EP tube, and the content of compound 19 and control compound 2 in the plasma samples at different time points were detected and analyzed. […]

| compound | clearance [mL/min/kg] |
| --- | --- |
| C/C(=C\CCP(=O)(N[C@@H](C)C(=O)OCc1ccccc1)Oc1ccccc1)CO (stereo partly shown) [Control compound 2, reference compound] | 418 |

###

experimental-details: Pharmacokinetic test in cynomolgus monkeys
Type: in vivo
measurement-parameters: male, cynomolgus monkey, plasma, IV 2 mg/kg, 9 min, read-out: Plasma concentration of the unchanged drug

| molecule | concentration at 9 min, ng/mL |
| --- | --- |
| C/C(=C\CCP(=O)(N[C@@H](C)C(=O)OCc1ccccc1)Oc1ccccc1)CO (stereo partly shown) [Control compound 2, reference compound] | 49 |

###

experimental-details: Binding rate test of compounds and human plasma protein (equilibrium dialysis)
Assay type: in vitro ADME
measurement-parameters: human plasma, equilibrium dialysis 6 hours, 37° C.
Property: fraction unbound at 6 h, 1 μM; scope: individual compounds
result-type: fraction unbound at 6 h, 1 μM

| compound | result-type | value-reported |
| --- | --- | --- |
| C/C(=C\CCP(=O)(N[C@@H](C)C(=O)OC1CC2(COC2)C1)Oc1ccccc1)CO (stereo partly shown) [Compound 30] | fraction unbound at 6 h, 1 μM | 0.359 |
| C/C(=C\CC(F)(F)P(=O)(N[C@@H](C)C(=O)O[C@@H]1CCOC1)Oc1ccccc1)CO (stereo partly shown) [Compound 37] | fraction unbound at 6 h, 1 μM | 0.098 |
| C[C@H](NP(=O)(CC/C=C(/CO)C(F)(F)F)Oc1ccccc1)C(=O)O[C@@H]1CCOC1 (stereo partly shown) [Compound 27] | fraction unbound at 6 h, 1 μM | 0.193 |
| C/C(=C\CCP(=O)(N[C@@H](C)C(=O)OCc1ccccc1)Oc1ccccc1)CO (stereo partly shown) [Control compound 2, reference compound] | fraction unbound at 6 h, 1 μM | 0.027 |

###

Tested on: Huh7/FG2 cells
experimental-details: EC50 assay of small molecule activated γδ T cells to kill Huh7/FG2 tumor cells
Assay type: cell-based
measurement-parameters: γδT cells + Huh7/FG2, E:T=5:1, co-culture 20 hours, 0.05-100 nM; read-out: Huh7 killing (EC50)
Method: γδT cells and Huh7/FG2 tumor cell lines were expanded and cultured in vitro. The Huh7/FG2 cells were digested, and the cells were counted and resuspended in DMEM complete medium, the density of the cell suspension was adjusted and added into a 96-well plate at 5×10^3 cells/100 μL/well for overnight incubation. […] After standing for 18 minutes in the dark, the signal of chemiluminescence was detected. […]
pEC50: −log10 of the molar value.

| molecule | pEC50 |
| --- | --- |
| C/C(=C\CC[P@@](=O)(N[C@@H](C)C(=O)O[C@@H]1CCOC1)Oc1ccccc1)CO | 9.38 |
